Measured On: Human immunodeficiency virus type 1 integrase (Human immunodeficiency virus 1)
Procedure Details: Inhibition of 3'-processing activity of HIV1 integrase
Recorded IC50 for the following compounds

Guide cases for IC50, answers given:
| Compound | Value Reported |
| --- | --- |
| CN(C)CCCN1C(=O)C(O)=C(C(=O)c2cccs2)C1c1cccs1 (configuration not stated) | > 100 µM |
| O=C(C1=C(O)C(=O)N(CCCN2CCOCC2)C1c1ccccc1F)c1ccc(F)cc1 (configuration not stated) | > 1000 µM |
| COc1ccc(C(=O)C2=C(O)C(=O)N(CCN3CCNCC3)C2c2ccccc2F)cc1 (configuration not stated) | > 1000 µM |
| NCCCCCCNC(=O)c1c(O)oc2ccccc2c1=O | > 100 µM |
| O=c1oc2c(CN(CCO)CCO)c(O)ccc2cc1-c1nc2ccccc2s1 | 850 µM |

INPUT: Sample `COc1cccc2cc(-c3csc(Nc4cccc(O)c4)n3)c(=O)oc12` — what was its IC50?
OUTPUT: > 100 µM

INPUT: Sample COc1ccc(C2C(C(=O)c3ccc(F)cc3)=C(O)C(=O)N2CCN(C)C)cc1OC (configuration not stated) — what was its IC50?
OUTPUT: > 1000 µM

====

Measured On: Human immunodeficiency virus type 1 integrase (Human immunodeficiency virus 1, UniProt Q7ZJM1)
Sequence (Q7ZJM1 whole entry): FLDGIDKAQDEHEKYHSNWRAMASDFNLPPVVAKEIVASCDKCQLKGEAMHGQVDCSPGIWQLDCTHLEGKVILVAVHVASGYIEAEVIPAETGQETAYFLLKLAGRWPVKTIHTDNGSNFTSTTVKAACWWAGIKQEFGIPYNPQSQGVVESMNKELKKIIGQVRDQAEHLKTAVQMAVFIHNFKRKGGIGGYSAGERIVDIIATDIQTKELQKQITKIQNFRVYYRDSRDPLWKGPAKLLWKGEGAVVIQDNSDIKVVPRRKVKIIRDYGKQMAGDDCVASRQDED
Procedure Details: Inhibition of 3'-processing activity of HIV1 integrase
pIC50: −log10 of the molar value.
Recorded pIC50 for the following compounds

Guide cases for pIC50, answers given:
| Compound | pIC50 |
| --- | --- |
| Cc1ccc(C(=O)C2=C(O)C(=O)N(CCN(C)C)C2c2ccccc2F)cc1 (stereo not given) | < 3.00 |
| O=C(O)CCC(=O)Nc1ccc(S(=O)(=O)Nc2ccc(F)cc2)cc1 | < 4.00 |
| O=C(NCCCO)c1ccc(CSc2nc(O)c3c4c(sc3n2)CCC4)cc1 | < 4.00 |
| NCCCNc1ccc2c3c(nn2CCNCCO)-c2c(O)ccc(O)c2C(=O)c13 [PIROXANTRONE] | 4.74 |
| COC(=O)c1c(NC(=O)CC2Nc3ccccc3NC2=O)sc2c1CCCC2 (stereo not given) | < 4.00 |

INPUT: Sample `CCOC(=O)c1c(NC(=O)c2cc3ccccc3oc2=O)sc(C(N)=O)c1C` — what was its pIC50?
OUTPUT: 4.05

INPUT: Sample CCOC(=O)c1c(NC(=O)CC2Sc3ccc(C(F)(F)F)cc3NC2=O)sc2c1CCCC2 (stereo not given) — what was its pIC50?
OUTPUT: < 4.00

INPUT: Sample CCN(CC)CCN1C(=O)C(O)=C(C(=O)c2ccccc2)C1c1ccc(OC)cc1OC (stereo not given) — what was its pIC50?
OUTPUT: < 3.00

INPUT: Sample `Oc1ccc(C(c2c[nH]c3ccccc23)c2c[nH]c3ccccc23)cc1O` — what was its pIC50?
OUTPUT: 4.28

INPUT: Sample `COc1cc(C(c2c[nH]c3ccccc23)c2c[nH]c3ccccc23)ccc1OCC(=O)O` — what was its pIC50?
OUTPUT: < 4.00

====

Measured On: UniProt:Q7ZJM1
Procedure Details: Inhibition of strand transfer activity of HIV1 integrase
Property: IC50

Guide cases for IC50, answers given:
| Compound | Property | Value Reported |
| --- | --- | --- |
| CN(C)CCCN1C(=O)C(O)=C(C(=O)c2cccs2)C1c1cccs1 (configuration not stated) | IC50 | > 100 µM |
| CCOC(=O)c1c(NC(=O)CC2Sc3ccc(C(F)(F)F)cc3NC2=O)sc2c1CCCC2 (configuration not stated) | IC50 | > 100 µM |
| COc1cc(C(c2c[nH]c3ccccc23)c2c[nH]c3ccccc23)ccc1OCC(=O)O | IC50 | > 100 µM |
| COC(=O)c1c(NC(=O)CC2Nc3ccccc3NC2=O)sc2c1CCCC2 (configuration not stated) | IC50 | > 100 µM |
| COc1ccc(C2C(C(=O)c3ccc(F)cc3)=C(O)C(=O)N2CCN(C)C)cc1OC (configuration not stated) | IC50 | > 1000 µM |
| NCCCCCCNC(=O)c1c(O)oc2ccccc2c1=O | IC50 | > 100 µM |
| CCOC(=O)C1=C(O)/C(=C\c2ccc(CNC(=O)C(=O)Nc3ccccc3)o2)N=C1C | IC50 | 40 µM |
| O=C(O)CCC(=O)Nc1ccc(Cl)c(NC(=O)Cc2ccccc2)c1 | IC50 | > 100 µM |
| O=C(NCCCO)c1ccc(CSc2nc(O)c3c4c(sc3n2)CCC4)cc1 | IC50 | > 100 µM |
| NCCCNc1ccc2c3c(nn2CCNCCO)-c2c(O)ccc(O)c2C(=O)c13 | IC50 | 9 µM |

INPUT: Sample O=C(C1=C(O)C(=O)N(CCCN2CCOCC2)C1c1ccccc1F)c1ccc(F)cc1 (configuration not stated) — what was its IC50?
OUTPUT: > 1000 µM

INPUT: Sample Cc1ccc(C(=O)C2=C(O)C(=O)N(CCN(C)C)C2c2ccccc2F)cc1 (configuration not stated) — what was its IC50?
OUTPUT: > 1000 µM

INPUT: Sample COc1ccc(C(=O)C2=C(O)C(=O)N(CCN3CCNCC3)C2c2ccccc2F)cc1 (configuration not stated) — what was its IC50?
OUTPUT: 630 µM

INPUT: Sample `O=C(O)CCC(=O)Nc1ccc(S(=O)(=O)Nc2ccc(F)cc2)cc1` — what was its IC50?
OUTPUT: > 100 µM

INPUT: Sample COc1ccc(C2C(C(=O)c3ccco3)=C(O)C(=O)N2CCN2CCOCC2)c(OC)c1 (configuration not stated) — what was its IC50?
OUTPUT: 395 µM

INPUT: Sample `Oc1ccc(C(c2c[nH]c3ccccc23)c2c[nH]c3ccccc23)cc1O` — what was its IC50?
OUTPUT: 10 µM

INPUT: Sample `COc1cccc2cc(-c3csc(Nc4cccc(O)c4)n3)c(=O)oc12` — what was its IC50?
OUTPUT: > 100 µM

INPUT: Sample CCN(CC)CCN1C(=O)C(O)=C(C(=O)c2ccccc2)C1c1ccc(OC)cc1OC (configuration not stated) — what was its IC50?
OUTPUT: > 1000 µM

INPUT: Sample `COCCCNS(=O)(=O)c1ccc(Oc2cc(O)c3c(c2O)C(=O)c2ccccc2C3=O)cc1` — what was its IC50?
OUTPUT: 23 µM

INPUT: Sample `O=c1oc2c(CN(CCO)CCO)c(O)ccc2cc1-c1nc2ccccc2s1` — what was its IC50?
OUTPUT: 350 µM

INPUT: Sample COc1ccc(C2C(C(=O)c3ccccc3)=C(O)C(=O)N2CCCO)cc1OC (configuration not stated) — what was its IC50?
OUTPUT: > 100 µM

INPUT: Sample `CCOC(=O)c1c(NC(=O)c2cc3ccccc3oc2=O)sc(C(N)=O)c1C` — what was its IC50?
OUTPUT: 56 µM
